# Procedure Details: Comparative apparent solubility test (100 nm filtration, UV-VIS or RP-HPLC)
# Type: physicochemical
# Condition: ultrapurified water, thermodynamic from solid, FIG. 17, read-out: comparative apparent solubility of Ivacaftor formulations
Assay Metric: solubility

- CC(C)(C)c1cc(C(C)(C)C)c(NC(=O)c2c[nH]c3ccccc3c2=O)cc1O: < 100 µg/mL
